Assay: MRP1 drug-resistance reversers in H69AR cells – cell-based, doxorubicin co-treatment, pilot screen (AID 601)
Conditions: H69AR cells + 2 uM doxorubicin, CellTiter-Glo, 72 h; measured here: viability with 2 uM doxorubicin; at 10 µM; stronger effect = lower value
observable: viability

Input line: GET /values?readout=viability&item= COc1ccccc1NC(=O)CSc1nnc(Cc2cccn2C)n1-c1ccc(F)cc1
Output line: 84.9%

Input line: Consider the molecule shown here: COc1cccc(C2C(C(N)=O)=C(C)Nc3nc(-c4ccccc4Cl)nn32)c1 (stereo unspecified) What is its recorded viability?
Output line: 76.4%

Input line: Entry under review: CCC(C)(C(=O)NC1CCCC1)N(Cc1cccs1)C(C)=O (stereo unspecified) . Reported viability?
Output line: 90.2%

Input line: Can you share its viability? I mean this molecule: CCOc1ccc(NC(=O)CSc2nccn2C)cc1
Output line: 93%

Input line: Query (molecule): Cc1ccc(C(=O)NC(Cc2c[nH]c3ccccc23)C(=O)O)o1 (stereo unspecified) ; field requested: viability
Output line: 87.1%

Input line: Quick check: viability of CNC(=O)c1ccccc1NC(=O)c1c(O)c2c([nH]c1=O)CCCC2 ?
Output line: 99.9%

* * *

Assay: RAM signaling pathway blockade in yeast – S. cerevisiae, Pdr1DBD-CYC8 efflux-inhibited sensitized strain, primary screen (AID 1298);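 further: 0% = DMSO untreated cells without growth and 100% = 10 µM 1-NA-PP1 full growth; higher means more yeast growth rescued from 5-FOA killing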
Details: S. cerevisiae cbk1-as DSE1-URA3 strain, 5-FOA growth OD615, 2 d; at 50 µM; stronger effect = higher value
# RAM network inhibition per entry
Quick reminder: number only, in %, skip the unit.

// below: answered compounds
compound: O=C(CSc1nc2c(cnn2-c2ccc(F)cc2)c(=O)[nH]1)N1CCCCCC1
RAM network inhibition / %: -0.11
--
compound: Cc1nonc1NC(=O)c1ccccc1Br
RAM network inhibition / %: -0.15
--
compound: CCOC(=O)N(C)OC(=O)Nc1ccc(Cl)c(Cl)c1
RAM network inhibition / %: 5.93
--
compound: Cc1cccc(C2CC(c3ccc(Cl)cc3)Nc3nc(N)nn32)c1 (stereo unspecified)
RAM network inhibition / %: 3.62
--
compound: O=C(CSc1nc2c(c(=O)n1-c1ccc(Cl)cc1)SCC2)Nc1nccs1
RAM network inhibition / %: 5.03

Now turn to the next compound.
Input line: # get_value(readout='RAM network inhibition', item= Cc1onc(-c2ccccc2)c1C(=O)NCc1cccnc1 )
Output line: 1.71

* * *

Below, each entry is listed with its recorded growth inhibition.
Experiment: S. cerevisiae growth inhibition in restrictive medium, OD615, pilot screen, restrictive growth control, yeast lifespan reduction project (AID 706);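 further: modified DeaD lifespan yeast strain shifted to restrictive glucose medium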
Conditions: OD615, 48 h, at 10 µM, stronger effect = higher value
Please state the figure in %; there is no need to write the unit.

A selection of reference data follows.
molecule: CCC(C)C1C(C#N)=C(N)OC2=C1C(=O)CC(C)(C)C2 (stereo unspecified)
units-of-measure: %
growth inhibition: -15.1

molecule: O=C1CC(c2cccnc2)c2cc3c(cc2N1)OCCO3 (stereo unspecified)
units-of-measure: %
growth inhibition: -0.935

molecule: Cc1ccnc(NC2c3ccccc3C(=O)N2Cc2ccccc2Cl)c1 (stereo unspecified)
units-of-measure: %
growth inhibition: 2.1

molecule: C=CCn1c(SCc2cccc(C#N)c2)nnc1-c1ccccc1O
units-of-measure: %
growth inhibition: 3.15

molecule: O=C1CCC(=O)N1c1ccc(CSc2nnnn2C2CCCCC2)cc1
units-of-measure: %
growth inhibition: 4.66

molecule: COc1ccc(C2C(C(=O)NCc3cccnc3)c3ccccc3C(=O)N2C)cc1OC (stereo unspecified)
units-of-measure: %
growth inhibition: -13.9

Input line: Look up growth inhibition for this molecule: COc1cc(Cl)c(S(=O)(=O)n2cnc(C)c2)cc1Cl
Output line: 0.12

Input line: Which measured growth inhibition value corresponds to O=C(Nc1nc(-c2ccncc2)cs1)C1COc2ccccc2O1 (stereo unspecified) ?
Output line: 33.5

Input line: For the molecule CCn1cc(C(=O)NCC2COc3ccccc3O2)c2cc(OC)c(OC)cc2c1=O (stereo unspecified) , what growth inhibition is on record?
Output line: -33.2

Input line: State the recorded growth inhibition for this entry: O=C(NCCN1C(=O)C2C3C=CC(C3)C2C1=O)Nc1ccccn1 (stereo unspecified)
Output line: -0.24

Input line: I have this molecule here, Nc1nc(N2CCCCC2)nc(N(c2ccccc2)c2ccccc2)n1 , and I need its recorded growth inhibition.
Output line: 8
